Measured values drawn from paper PMC3597730 for this set.

- TARGET_ENTITY: KCa3.1 channels in 3T3 fibroblasts (Mus musculus)
- Construct: KCa3.1 channels in 3T3 fibroblasts; endogenous in cells; host or cells: 3T3-L1 mouse embryonic fibroblasts
- METHOD_SUMMARY: Whole-cell patch-clamp of KCa3.1 currents in 3T3 fibroblasts
- Format: cell-based
- RUN_CONDITIONS: KCa3.1 whole-cell current, 3T3 fibroblasts, 1 µM free Ca2+ in pipette; compound 10 µM; mean ± SEM, n ≥3; read-out: % of control at 10 µM
OBSERVED_PROPERTY: remaining activity at 10 µM (%)
# unit: % | format: bare number

In the examples that follow, each entry is paired with its recorded remaining activity at 10 µM.
COMPOUND: O=C(/C=C/c1ccc(O)c(O)c1)OCCc1ccccc1
UNIT_TAG: %
TEST_RESULT: 94
--
COMPOUND: O=C(OC[C@H]1O[C@@H](OC(=O)c2cc(O)c(O)c(O)c2)[C@H](OC(=O)c2cc(O)c(O)c(O)c2)[C@@H](OC(=O)c2cc(O)c(O)c(O)c2)[C@@H]1OC(=O)c1cc(O)c(O)c(O)c1)c1cc(O)c(O)c(O)c1
UNIT_TAG: %
TEST_RESULT: 102
--
COMPOUND: O=C(O)c1cccnc1Nc1cccc(C(F)(F)F)c1 [Niflumic Acid, reference compound]
UNIT_TAG: %
TEST_RESULT: 106

Asked: Using the record for OCCc1ccc(O)c(O)c1 [Hydroxytyrosol] , report its remaining activity at 10 µM.
Given back: 108

Asked: What value of measured remaining activity at 10 µM is listed for Nc1ccc(O)c(C(=O)O)c1 [Mesalamine, 5-amino-2-hydroxybenzoic acid, reference compound] ?
Given back: 53

Asked: Query (compound): O=C(O)c1ccccc1Nc1cccc(C(F)(F)F)c1 [Flufenamic Acid, reference compound] ; field requested: remaining activity at 10 µM
Given back: 13

Asked: Tell me the measured remaining activity at 10 µM of CC(=O)Oc1ccccc1C(=O)O [2-acetyloxybenzoic acid, reference compound] , please.
Given back: 108

---

- TARGET_ENTITY: KCa3.1 channels in 3T3 fibroblasts (Mus musculus, UniProt O89109)
- Construct: KCa3.1 channels in 3T3 fibroblasts; endogenous in cells; host or cells: 3T3-L1 mouse embryonic fibroblasts
- METHOD_SUMMARY: Whole-cell patch-clamp of KCa3.1 currents in 3T3 fibroblasts
- Assay type: cell-based
- RUN_CONDITIONS: EC50 of KCa3.1 inhibition, whole-cell, 3T3 fibroblasts
OBSERVED_PROPERTY: EC50

Recorded EC50, per entry:
COMPOUND: COc1cc(/C=C/C(=O)O)ccc1O
TARGET_ENTITY: KCa3.1 channels in 3T3 fibroblasts (Mus musculus, UniProt O89109)
EC50: > 10 µM

COMPOUND: NC(=O)C[S+]([O-])C(c1ccccc1)c1ccccc1 (stereo not drawn) [Modafinil, 2-benzhydrylsulfinylacetamide, reference compound]
TARGET_ENTITY: KCa3.1 channels in 3T3 fibroblasts (Mus musculus, UniProt O89109)
EC50: > 1 µM

Proceed to the following item.
Asked: Item under review: COc1cc(C(=O)O)ccc1O [Vanillic Acid, 4-hydroxy-3-methoxybenzoic acid] . Reported EC50?
Given back: > 10 µM

---

- TARGET_ENTITY: KCa3.1 channels in 3T3 fibroblasts (Mus musculus, UniProt O89109)
- Construct: KCa3.1 channels in 3T3 fibroblasts; endogenous in cells; host or cells: 3T3-L1 mouse embryonic fibroblasts
- METHOD_SUMMARY: Whole-cell patch-clamp of KCa3.1 currents in 3T3 fibroblasts
- Assay type: cell-based
- RUN_CONDITIONS: whole-cell, 3T3 fibroblasts; concentrations up to 50 µM as in Table 1
OBSERVED_PROPERTY: KCa3.1 blocking effect (in words)

Some entries whose results are on file:
MOLECULE: O=C(OCc1cc(COC(=O)c2ccc(O)c(F)c2)cc(COC(=O)c2ccc(O)c(F)c2)c1)c1ccc(O)c(F)c1 [Compound 13b]
OBSERVED_PROPERTY: KCa3.1 blocking effect (in words)
TEST_RESULT: Complete inhibition

MOLECULE: O=C(/C=C/c1ccc(O)c(O)c1)OCCc1ccccc1
OBSERVED_PROPERTY: KCa3.1 blocking effect (in words)
TEST_RESULT: no

MOLECULE: O=C(O)c1ccccc1Nc1cccc(C(F)(F)F)c1 [Flufenamic Acid, reference compound]
OBSERVED_PROPERTY: KCa3.1 blocking effect (in words)
TEST_RESULT: Complete inhibition

MOLECULE: O=C(O)/C=C/c1ccc(O)c(O)c1
OBSERVED_PROPERTY: KCa3.1 blocking effect (in words)
TEST_RESULT: Complete inhibition

Alright, here's another molecule for you.
Asked: Which KCa3.1 blocking effect (in words) is reported for this molecule? O=C(OC[C@H]1O[C@@H](OC(=O)c2cc(O)c(O)c(O)c2)[C@H](OC(=O)c2cc(O)c(O)c(O)c2)[C@@H](OC(=O)c2cc(O)c(O)c(O)c2)[C@@H]1OC(=O)c1cc(O)c(O)c(O)c1)c1cc(O)c(O)c(O)c1
Given back: no

---

- TARGET_ENTITY: cloned human KCa3.1 channel (Homo sapiens, UniProt O15554)
- Construct: gift of Khaled Houamed, University of Chicago
- METHOD_SUMMARY: Inside-out patch recordings from hKCa3.1-overexpressing HEK293 cells
- RUN_CONDITIONS: inside-out patches, HEK293, 0.5 µM free Ca2+; read-out: EC50 of hKCa3.1 inhibition
OBSERVED_PROPERTY: pEC50
To interpret pEC50, take it as minus log10 of a concentration measured in moles per litre.

Asked: For the molecule shown here, O=C(OCc1cc(COC(=O)c2ccc(O)c(F)c2)cc(COC(=O)c2ccc(O)c(F)c2)c1)c1ccc(O)c(F)c1 [Compound 13b] , give the reported pEC50.
Given back: 7.85

---

- TARGET_ENTITY: KCa3.1 channels in 3T3 fibroblasts (Mus musculus, UniProt O89109)
- Construct: KCa3.1 channels in 3T3 fibroblasts; endogenous in cells; host or cells: 3T3-L1 mouse embryonic fibroblasts
- METHOD_SUMMARY: Whole-cell patch-clamp of KCa3.1 currents in 3T3 fibroblasts
- Assay type: cell-based
- RUN_CONDITIONS: KCa3.1 whole-cell current, 3T3 fibroblasts, 1 µM free Ca2+ in pipette; compound 1 µM; mean ± SEM, n ≥3; read-out: % of control at 1 µM
OBSERVED_PROPERTY: remaining activity at 1 µM
Write the numeric value and follow it with the unit.

COMPOUND: O=C(O)c1ccccc1Nc1cccc(C(F)(F)F)c1 [Flufenamic Acid, reference compound]
TARGET_ENTITY: KCa3.1 channels in 3T3 fibroblasts (Mus musculus, UniProt O89109)
TEST_RESULT: 65%
--
COMPOUND: O=C(OCc1cc(COC(=O)c2ccc(O)c(Cl)c2)cc(COC(=O)c2ccc(O)c(Cl)c2)c1)c1ccc(O)c(Cl)c1 [Compound 13c]
TARGET_ENTITY: KCa3.1 channels in 3T3 fibroblasts (Mus musculus, UniProt O89109)
TEST_RESULT: 61%
--
COMPOUND: Nc1ccc(O)c(C(=O)O)c1 [Mesalamine, 5-amino-2-hydroxybenzoic acid, reference compound]
TARGET_ENTITY: KCa3.1 channels in 3T3 fibroblasts (Mus musculus, UniProt O89109)
TEST_RESULT: 72%

Asked: Look at this compound and give its reported remaining activity at 1 µM. COc1cc(C(=O)OCc2cc(COC(=O)c3ccc(O)c(OC)c3)cc(COC(=O)c3ccc(O)c(OC)c3)c2)ccc1O [Compound 13a]
Given back: 78%

---

- TARGET_ENTITY: hKCa2.3 (Homo sapiens, UniProt Q9UGI6)
- Construct: expressed in transfected cells; host or cells: COS7
- Sequence (Q9UGI6 whole entry): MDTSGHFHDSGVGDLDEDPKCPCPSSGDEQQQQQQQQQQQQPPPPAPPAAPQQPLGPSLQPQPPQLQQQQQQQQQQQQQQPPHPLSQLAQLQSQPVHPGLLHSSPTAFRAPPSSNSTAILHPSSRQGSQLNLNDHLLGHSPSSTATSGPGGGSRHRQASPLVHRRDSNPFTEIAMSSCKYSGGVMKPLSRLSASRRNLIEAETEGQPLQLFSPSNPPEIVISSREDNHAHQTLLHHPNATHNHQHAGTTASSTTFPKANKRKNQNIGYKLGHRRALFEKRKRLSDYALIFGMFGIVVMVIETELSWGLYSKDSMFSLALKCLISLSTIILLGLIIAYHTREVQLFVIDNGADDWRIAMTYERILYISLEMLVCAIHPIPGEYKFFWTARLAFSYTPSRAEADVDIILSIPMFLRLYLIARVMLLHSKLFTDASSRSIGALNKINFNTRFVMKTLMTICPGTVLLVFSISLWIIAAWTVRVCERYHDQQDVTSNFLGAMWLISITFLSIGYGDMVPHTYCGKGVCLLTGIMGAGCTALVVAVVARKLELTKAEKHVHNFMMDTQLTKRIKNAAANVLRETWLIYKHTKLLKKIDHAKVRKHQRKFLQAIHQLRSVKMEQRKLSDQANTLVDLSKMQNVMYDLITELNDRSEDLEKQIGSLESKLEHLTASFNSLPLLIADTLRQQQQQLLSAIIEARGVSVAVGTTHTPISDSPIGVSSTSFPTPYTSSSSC
- METHOD_SUMMARY: Whole-cell patch-clamp of hKCa2.3 in COS7 cells
- Format: cell-based
- RUN_CONDITIONS: whole-cell, COS7 cells, 1 µM free Ca2+; read-out: EC50 of hKCa2.3 inhibition
OBSERVED_PROPERTY: pEC50
// pEC50 here means minus log10 of the molar concentration (mol/L)

Asked: Which pEC50 value belongs to O=C(OCc1cc(COC(=O)c2ccc(O)c(F)c2)cc(COC(=O)c2ccc(O)c(F)c2)c1)c1ccc(O)c(F)c1 [Compound 13b] ?
Given back: 9.44

---

Below, each entry is listed alongside its reported remaining activity at 50 µM.
- TARGET_ENTITY: KCa3.1 channels in 3T3 fibroblasts (Mus musculus)
- Construct: KCa3.1 channels in 3T3 fibroblasts; endogenous in cells; host or cells: 3T3-L1 mouse embryonic fibroblasts
- METHOD_SUMMARY: Whole-cell patch-clamp of KCa3.1 currents in 3T3 fibroblasts
- Type: cell-based
- RUN_CONDITIONS: KCa3.1 whole-cell current, 3T3 fibroblasts, 1 µM free Ca2+ in pipette; compound 50 µM; mean ± SEM, n ≥3; read-out: % of control at 50 µM
For clarity, give the value followed by its unit.

Consider the worked cases shown below.
COMPOUND: CC(=O)Oc1ccccc1C(=O)O [2-acetyloxybenzoic acid, reference compound]
remaining activity at 50 µM: 104%
--
COMPOUND: O=C(O)c1cccnc1Nc1cccc(C(F)(F)F)c1 [Niflumic Acid, reference compound]
remaining activity at 50 µM: 81%
--
COMPOUND: Nc1ccc(O)c(C(=O)O)c1 [Mesalamine, 5-amino-2-hydroxybenzoic acid, reference compound]
remaining activity at 50 µM: 46%
--
COMPOUND: COc1cc(/C=C/C(=O)O)ccc1O [Ferulic Acid]
remaining activity at 50 µM: 32%
--
COMPOUND: Cc1ccc(=O)n(-c2ccccc2)c1 [Pirfenidone, methyl-1-phenylpyridin-2(1H)-one, reference compound]
remaining activity at 50 µM: 99%

Asked: Request: remaining activity at 50 µM, test system KCa3.1 channels in 3T3 fibroblasts (Mus musculus), entry O=C(O)c1ccccc1Nc1cccc(C(F)(F)F)c1 [Flufenamic Acid, reference compound]
Given back: 2.5%

Asked: Request body: readout remaining activity at 50 µM, system KCa3.1 channels in 3T3 fibroblasts (Mus musculus), query COc1cc(C(=O)O)ccc1O [Vanillic Acid, 4-hydroxy-3-methoxybenzoic acid] . Return the value.
Given back: 46%
